The origin of these recorded values is paper PMC6218153.

assay: PK study in plasma and CSF after single IV, SC or IN dose; format: in vivo, rat; conditions: rat, in vivo, iv, 11 mg/kg, AUC, IV 11 mg/kg, CSF
Where no end group is shown, it is not given here.
Endpoint label: AUC (ng·h/mL)
Number in ng·h/mL, nothing else.

## Task Tell us which AUC value is on record for DEEEDEEL [P8, DEEEDEEL]
## Result 54.5

----------
test: Metabolic stability in mouse plasma; format: in vitro ADME
Where no end group is shown, it is not given here.
Endpoint label: remaining at 2 h, 1 μM
The answer consists of two parts: a number and, after it, its unit.

## Task Tell us which remaining at 2 h, 1 μM value is on record for DEEEDEEL [P8, DEEEDEEL]
## Result 100%

----------
assay: PK study in plasma and CSF after single IV, SC or IN dose; format: in vivo, rat; conditions: rat, in vivo, iv, 11 mg/kg, AUC, IV 11 mg/kg, plasma
Where no end group is shown, it is not given here.
Endpoint label: AUC (ng·h/mL)
Number in ng·h/mL, nothing else.

## Task Tell us which AUC value is on record for DEEEDEEL [P8, DEEEDEEL]
## Result 11300

----------
assay: PK study in plasma and CSF after single IV, SC or IN dose; assay type: in vivo, rat; details: rat, in vivo, inhaled or intranasal, 5.5 mg/kg
Where no end group is shown, it is not given here.
Endpoint label: bioavailability (%)
Number in %, nothing else.

## Task Tell us which bioavailability value is on record for DEEEDEEL [P8, DEEEDEEL]
## Result 2.8

----------
assay: PK study in plasma and CSF after single IV, SC or IN dose; format: in vivo, rat; conditions: rat, in vivo, 5.5 mg/kg, AUC, IN 5.5 mg/kg, CSF
Where no end group is shown, it is not given here.
Endpoint label: AUC (ng·h/mL)
Number in ng·h/mL, nothing else.

## Task Tell us which AUC value is on record for DEEEDEEL [P8, DEEEDEEL]
## Result 5.5

----------
test: Metabolic stability in human plasma; format: in vitro ADME
Where no end group is shown, it is not given here.
Endpoint label: remaining at 2 h, 1 μM (%)
Number in %, nothing else.

## Task Tell us which remaining at 2 h, 1 μM value is on record for DEEEDEEL [P8, DEEEDEEL]
## Result 63.1

----------
experiment: PK study in plasma and CSF after single IV, SC or IN dose; type: in vivo, rat; conditions: rat, in vivo, iv, 11 mg/kg
Where no end group is shown, it is not given here.
Endpoint label: clearance
The answer consists of two parts: a number and, after it, its unit.

## Task Tell us which clearance value is on record for DEEEDEEL [P8, DEEEDEEL]
## Result 17.6 mL/min/kg

----------
test: PK study in plasma and CSF after single IV, SC or IN dose; format: in vivo, rat; conditions: rat, in vivo, sc, 11 mg/kg, AUC, SC 11 mg/kg, plasma
Where no end group is shown, it is not given here.
Endpoint label: AUC (ng·h/mL)
Number in ng·h/mL, nothing else.

## Task Tell us which AUC value is on record for DEEEDEEL [P8, DEEEDEEL]
## Result 7380

----------
test: Metabolic stability in mouse plasma; assay type: in vitro ADME
Where no end group is shown, it is not given here.
Endpoint label: half-life

## Task Tell us which half-life value is on record for DEEEDEEL [P8, DEEEDEEL]
## Result > 240 min
